Reported % inhibition by item:
- Tested System: T1, recombinant soluble HLA-DR2 (DRA/DRB1*1501) (human, UniProt P01903 26-216; P01911 30-227, limits assumed)
- T1 construct: extracellular domain; also called HLA-DR2 (DRB1*1501); soluble HLA-DR2 molecules
- Assay Overview: competition ELISA: soluble HLA-DR2, biotinylated MBP85-99 (0.5 µM), unlabeled competitor (1 µM); capture on LB3.1 antibody

# Binder, % inhibition (%)
measured = [
    ("APEAKKVEAFKAAAAPA (also called peptide J17) [J17]", 23),
    ("EAPKFEAYKAAAAPA (also called peptide J12) [J12]", 13),
    ("APEKAKFEAYKAAAAPA (also called peptide J9) [J9]", 31),
    ("EAPKVEAYKAAAAPA (also called peptide J13) [J13]", 44),
]
